Molecular target: MTHFD1 recombinant human enzyme (Homo sapiens, UniProt P11586)
Sequence (P11586 2-291 limits assumed): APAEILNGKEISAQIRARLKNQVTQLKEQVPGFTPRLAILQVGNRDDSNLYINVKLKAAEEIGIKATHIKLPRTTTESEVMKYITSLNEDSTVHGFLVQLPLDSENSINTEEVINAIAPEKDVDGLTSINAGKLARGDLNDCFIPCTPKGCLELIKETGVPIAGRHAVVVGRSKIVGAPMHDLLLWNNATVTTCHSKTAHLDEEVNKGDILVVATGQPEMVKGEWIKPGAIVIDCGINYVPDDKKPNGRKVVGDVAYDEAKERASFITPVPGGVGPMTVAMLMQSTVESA
Test: MTHFD1 inhibition assay (NAD(P)H-Glo luminescence)
Details: MTHFD1 IC50, recombinant human enzyme 200 nM, NADP, band
pIC50: −log10 of the molar value.
quantity: pIC50

// known answers, use as guide
[[record]]
query_smiles = "COC[C@H]1CN(c2cc(C)c3c4c(c(=O)oc3c2C)CN(C(=O)c2ccc(C(=O)NS(=O)(=O)N(C)C)c(N3C5CCC3CC5)c2)CC4)CCN1C"
obs_value = "8.00 to 9.00"

[[record]]
query_smiles = "COC[C@H]1CN(c2cc(C)c3c4c(c(=O)oc3c2C)CN(C(=O)c2ccc(C(=O)NS(=O)(=O)N3CCCC3)c(O[C@@H]3C[C@@H]5C[C@@H]5C3)c2F)CC4)CCN1C"
obs_value = "8.00 to 9.00"

[[record]]
query_smiles = "COC[C@H]1CN(c2cc(C)c3c4c(c(=O)oc3c2C)CN(C(=O)c2cc(OC)c(C(=O)NS(=O)(=O)N3CCCC3)cc2F)CC4)CCN1C"
obs_value = "6.00 to 7.00"

[[record]]
query_smiles = "COC[C@H]1CN(c2cc(C)c3c4c(c(=O)oc3c2C)CN(C(=O)c2ccc(C(=O)NS(=O)(=O)N(C)C(C)C)c(OC3CCC3)c2F)CC4)CCN1C"
obs_value = "8.00 to 9.00"


Next, consider the following compound.
I'm curious: which pIC50 was measured for `COC[C@H]1CN(c2ccc3c4c(c(=O)oc3c2C)CN(C(=O)c2ccc(C(=O)NS(=O)(=O)N3CCCC3)c(O[C@@H]3C[C@@H]5C[C@@H]5C3)c2F)CC4)CCN1C` tested on MTHFD1 recombinant human enzyme (Homo sapiens, UniProt P11586)?
8.00 to 9.00

###

The reader will find reported pIC50 values listed item by item below.
Molecular target: MTHFD2 recombinant human enzyme (Homo sapiens, UniProt P13995)
Sequence (P13995 36-350): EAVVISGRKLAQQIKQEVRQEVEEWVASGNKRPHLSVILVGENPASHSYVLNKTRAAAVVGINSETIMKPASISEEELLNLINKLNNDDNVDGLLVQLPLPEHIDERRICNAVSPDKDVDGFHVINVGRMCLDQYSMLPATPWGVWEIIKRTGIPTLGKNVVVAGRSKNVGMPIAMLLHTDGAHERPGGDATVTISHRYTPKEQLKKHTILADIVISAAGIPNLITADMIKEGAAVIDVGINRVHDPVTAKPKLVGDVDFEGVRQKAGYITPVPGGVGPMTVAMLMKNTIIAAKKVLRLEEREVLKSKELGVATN
Test: MTHFD2 inhibition assay (NAD(P)H-Glo luminescence)
pIC50: −log10 of the molar value.

// known answers, use as guide
[[record]]
compound = "COC[C@H]1CN(c2cc(C)c3c4c(c(=O)oc3c2C)CN(C(=O)c2ccc(C(=O)NS(=O)(=O)C3(C)CC3)c(N(C)C)c2F)CC4)CCN1C"
obs_value = "7.00 to 8.00"

[[record]]
compound = "[2H]C([2H])([2H])Oc1cc(C(=O)N2CCc3c(c(=O)oc4c(C)c(N5CCN(C)[C@@H](COC)C5)cc(Cl)c34)C2)c(F)cc1C(=O)NS(=O)(=O)N1CC2CC2C1 (some centres unmarked)"
obs_value = "8.00 to 9.00"

[[record]]
compound = "COC[C@H]1CN(c2ccc3c4c(c(=O)oc3c2C)CN(C(=O)c2ccc(C(=O)NS(=O)(=O)N(C)C)c(OC3CCC3)c2F)CC4)CCN1C"
obs_value = "8.00 to 9.00"

[[record]]
compound = "COC[C@H]1CN(c2cc(C)c3c4c(c(=O)oc3c2C)CN(C(=O)c2ccc(C(=O)NS(=O)(=O)C3(C)CC3)c(N3CCCC(F)(F)C3)c2)CC4)CCN1C"
obs_value = "8.00 to 9.00"


Need pIC50, item `COC[C@H]1CN(c2ccc3c4c(c(=O)oc3c2C)CN(C(=O)c2cc(OC3CCC3)c(C(=O)NS(=O)(=O)N3CCCC3)c(C(F)(F)F)c2)CC4)CCN1C`
6.00 to 7.00

###

Target: MTHFD1 recombinant human enzyme (Homo sapiens, UniProt P11586)
Test: MTHFD1 inhibition assay (NAD(P)H-Glo luminescence)
Conditions: MTHFD1 IC50, recombinant human enzyme 200 nM, NADP, band
The reader will find reported IC50 values listed item by item below.

// known answers, use as guide
[[record]]
compound = "COC[C@H]1CN(c2cc(C)c3c4c(c(=O)oc3c2C)CN(C(=O)c2ccc(C(=O)NS(=O)(=O)N(C)C)c(OC3CCCC3)c2F)CC4)CCN1C"
obs_value = "1 to 10 nM"

[[record]]
compound = "COC[C@H]1CN(c2ccc3c4c(c(=O)oc3c2C)CN(C(=O)c2cc(Cl)c(C(=O)NS(=O)(=O)C3(C)CC3)c(N3CC5CC5C3)c2)CC4)CCN1C (stereo partly drawn)"
obs_value = "100 to 1000 nM"

[[record]]
compound = "COC[C@H]1CN(c2cc(C)c3c4c(c(=O)oc3c2C)CN(C(=O)c2ccc(C(=O)NS(=O)(=O)N3C5CCC3CC5)c(OC3CC3)c2F)CC4)CCN1C"
obs_value = "10 to 100 nM"

[[record]]
compound = "COC[C@H]1CN(c2ccc3c4c(c(=O)oc3c2C)CN(C(=O)c2ccc(C(=O)NS(=O)(=O)N3CCCC3)c(N(C)C)c2F)CC4)CCN1C"
obs_value = "100 to 1000 nM"

[[record]]
compound = "CCOc1c(C(=O)NS(=O)(=O)N2CCCCC2)ccc(C(=O)N2CCc3c(c(=O)oc4c(C)c(N5CCN(C)[C@@H](COC)C5)cc(C)c34)C2)c1F"
obs_value = "10 to 100 nM"


Next, consider the following compound.
Need IC50, item `COC[C@H]1CN(c2cc(C)c3c4c(c(=O)oc3c2C)CN(C(=O)c2cc(OC)c(C(=O)NS(=O)(=O)N3CCCC3)cc2Cl)CC4)CCN1C`
1000 to 5000 nM

###

The reader will find reported IC50 values listed item by item below.
Biological target: MTHFD1 recombinant human enzyme (Homo sapiens, UniProt P11586)
Test: MTHFD1 inhibition assay (NAD(P)H-Glo luminescence)
Conditions: MTHFD1 IC50, recombinant human enzyme 200 nM, NADP, band

[[record]]
compound = "COC[C@H]1CN(c2ccc3c4c(c(=O)oc3c2C)CN(C(=O)c2cc(N3CC5CC5C3)c(C(=O)NS(=O)(=O)N(C)C)c(C(F)(F)F)c2)CC4)CCN1C (stereo partly drawn) [Example 118]"
obs_value = "1000 to 5000 nM"

[[record]]
compound = "CCOc1cc(C(=O)N2CCc3c(c(=O)oc4c(C)c(N5CCN(C)[C@@H](COC)C5)cc(C)c34)C2)c(F)cc1C(=O)NS(=O)(=O)N1CC[C@H](F)C1 [Example 268]"
obs_value = "100 to 1000 nM"

[[record]]
compound = "CCOc1c(C(=O)N2CCc3c(c(=O)oc4c(C)c(N5CCN(C)[C@@H](COC)C5)cc(C)c34)C2)ccc(C(=O)NS(=O)(=O)N2CCCC2)c1F [Example 223]"
obs_value = "1 to 10 nM"

[[record]]
compound = "COC[C@H]1CN(c2cc(C)c3c4c(c(=O)oc3c2C)CN(C(=O)c2ccc(C(=O)NS(=O)(=O)N3CCCC3)c(N3C5CCC3CC5)c2)CC4)CCN1C [Example 121]"
obs_value = "1 to 10 nM"

[[record]]
compound = "COC[C@H]1CN(c2cc(C)c3c4c(c(=O)oc3c2C)CN(C(=O)c2cc(N(C)C)c(C(=O)NS(=O)(=O)N3CCC(OC)CC3)cc2F)CC4)CCN1C [Example 289]"
obs_value = "100 to 1000 nM"


Next, consider the following compound.
Need IC50, item Cc1c(N2CCN3CCOC[C@H]3C2)cc(C)c2c3c(c(=O)oc12)CN(C(=O)c1ccc(C(=O)NS(=O)(=O)N2CCCC2)c(OC2CCC2)c1)CC3 [Example 21]
100 to 1000 nM

###

Target: MTHFD1 recombinant human enzyme (Homo sapiens, UniProt P11586)
Sequence (P11586 2-291 limits assumed): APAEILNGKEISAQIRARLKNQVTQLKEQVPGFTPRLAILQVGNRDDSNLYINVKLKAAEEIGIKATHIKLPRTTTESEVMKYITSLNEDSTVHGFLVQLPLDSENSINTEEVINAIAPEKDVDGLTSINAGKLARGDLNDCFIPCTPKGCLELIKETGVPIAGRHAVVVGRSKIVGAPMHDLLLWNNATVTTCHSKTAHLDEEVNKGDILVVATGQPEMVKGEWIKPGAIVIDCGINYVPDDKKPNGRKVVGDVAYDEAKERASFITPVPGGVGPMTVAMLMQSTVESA
Assay: MTHFD1 inhibition assay (NAD(P)H-Glo luminescence)
Settings: MTHFD1 IC50, recombinant human enzyme 200 nM, NADP, band
pIC50: −log10 of the molar value.
quantity: pIC50

// known answers, use as guide
[[record]]
query_smiles = "COC[C@H]1CN(c2cc(C)c3c4c(c(=O)oc3c2C)CN(C(=O)c2ccc(C(=O)NS(=O)(=O)N(C)C)c(N(C)C3CCC3)c2)CC4)CCN1C"
quantity = "pIC50"
obs_value = "7.00 to 8.00"

[[record]]
query_smiles = "COC[C@H]1CN(c2ccc3c4c(c(=O)oc3c2C)CN(C(=O)c2ccc(C(=O)NS(=O)(=O)C3(C)CC3)c(OC3CCC3)c2F)CC4)CCN1C"
quantity = "pIC50"
obs_value = "8.00 to 9.00"

[[record]]
query_smiles = "[2H]C([2H])([2H])Oc1cc(C(=O)N2CCc3c(c(=O)oc4c(C)c(N5CCN(C)[C@@H](COC)C5)cc(C)c34)C2)c(F)cc1C(=O)NS(=O)(=O)N1C2CCC1CC2"
quantity = "pIC50"
obs_value = "5.30 to 6.00"


I'm curious: which pIC50 was measured for `COC[C@H]1CN(c2cc(C)c3c4c(c(=O)oc3c2C)CN(C(=O)c2cc(F)c(C(=O)NS(=O)(=O)N3CCCC3)cc2C)CC4)CCN1C` tested on MTHFD1 recombinant human enzyme (Homo sapiens, UniProt P11586)?
5.30 to 6.00

And what about the molecule `COC[C@H]1CN(c2cc(Cl)c3c4c(c(=O)oc3c2C)CN(C(=O)c2cc(N(C)C)c(C(=O)NS(=O)(=O)N3CCCC5(COC5)C3)cc2F)CC4)CCN1C` ?
6.00 to 7.00

And what about the molecule `COC[C@H]1CN(c2ccc3c4c(c(=O)oc3c2C)CN(C(=O)c2cc(OC3CCCC3)c(C(=O)NS(=O)(=O)N(C)C)c(C(F)(F)F)c2)CC4)CCN1C` ?
5.30 to 6.00
